Measurement protocol: Plasma pharmacokinetics of GSK3532795, part A
Type: in vivo
Assay context: human, oral, 40 mg
Recorded metric: half-life (h)
Your answer should be a plain number; it is taken to be in h.

stdin: Request the reported half-life associated with `C=C(C)[C@@H]1CC[C@]2(NCCN3CCS(=O)(=O)CC3)CC[C@]3(C)[C@H](CC[C@@H]4[C@@]5(C)CC=C(c6ccc(C(=O)O)cc6)C(C)(C)[C@@H]5CC[C@]43C)[C@@H]12`
stdout: 33.8

----------
Measurement protocol: Plasma pharmacokinetics of GSK3532795, part B
Type: in vivo, human
Assay context: human, plasma, oral, C24 (%CV), Part B, fed, 40 mg + ATV 400 mg QD
Recorded metric: concentration at 24 h (ng/mL)
Your answer should be a plain number; it is taken to be in ng/mL.

stdin: Request the reported concentration at 24 h associated with `C=C(C)[C@@H]1CC[C@]2(NCCN3CCS(=O)(=O)CC3)CC[C@]3(C)[C@H](CC[C@@H]4[C@@]5(C)CC=C(c6ccc(C(=O)O)cc6)C(C)(C)[C@@H]5CC[C@]43C)[C@@H]12`
stdout: 1100

Source of measurements: paper PMC5848258
